Hello, the source for this data is patent US20240041042A1, in case you need it.

This listing pairs compounds with measured Post-emergence action against ORYSA in %.
Tested on: Oryza sativa (ORYSA)
Format: in vivo
TEST_SETTINGS: crop plant compatibility, 80 g/ha, effect in comparison to untreated controls
Answer with the figure and its unit, nothing else.

Guide cases for Post-emergence action against ORYSA in %, answers given:
Cc1ncccc1-n1nc(OCC(=O)OCc2ccccn2)c(Br)c1-c1cncc(F)c1; 0%
COC(=O)CCOC(=O)[C@@H](C)Oc1nn(-c2ccccn2)c(-c2ccc(F)nc2)c1Br; 10%

[in] I'd like to know its Post-emergence action against ORYSA in %. The compound in question is COC(=O)[C@@H](C)Oc1nn(-c2ccc(F)cn2)c(-c2ccc(F)nc2)c1Br
[out] 0%

[in] I'd like to know its Post-emergence action against ORYSA in %. The compound in question is COC(=O)CCOC(=O)COc1nn(-c2cccnc2C)c(-c2cncc(F)c2)c1Br
[out] 0%

[in] I'd like to know its Post-emergence action against ORYSA in %. The compound in question is COc1cccnc1-n1nc(OCC(=O)O)c(Cl)c1-c1ccc(F)nc1
[out] 0%

[in] I'd like to know its Post-emergence action against ORYSA in %. The compound in question is CCOC(=O)COc1nn(-c2nc(F)ccc2F)c(-c2ccc(F)nc2)c1C1CC1
[out] 0%

[in] I'd like to know its Post-emergence action against ORYSA in %. The compound in question is COC(=O)CSc1nn(-c2ccccn2)c(-c2cncc(F)c2)c1Br
[out] 0%

[in] I'd like to know its Post-emergence action against ORYSA in %. The compound in question is COC(=O)[C@@H](C)Oc1nn(-c2ncccc2F)c(-c2cccnc2)c1Br
[out] 0%

[in] I'd like to know its Post-emergence action against ORYSA in %. The compound in question is COC(=O)C(C)NC(=O)[C@@H](C)Oc1nn(-c2ccccn2)c(-c2cncc(F)c2)c1Br (some centres unmarked)
[out] 20%

[in] I'd like to know its Post-emergence action against ORYSA in %. The compound in question is O=C(COc1nn(-c2ncccc2C(F)(F)F)c(-c2cncc(F)c2)c1Br)OCC1CCOC1 (racemic)
[out] 0%

[in] I'd like to know its Post-emergence action against ORYSA in %. The compound in question is COC(=O)COc1nn(-c2cccnc2C)c(-c2cncc(F)c2)c1Cl
[out] 0%

[in] I'd like to know its Post-emergence action against ORYSA in %. The compound in question is COC(=O)[C@@H](C)Oc1nn(-c2nc(F)ccc2F)c(-c2ccc(F)nc2)c1C1CC1
[out] 20%

[in] I'd like to know its Post-emergence action against ORYSA in %. The compound in question is COC(=O)CCOC(=O)COc1nn(-c2ccnc(Cl)c2)c(-c2ccc(F)nc2)c1Br
[out] 0%

[in] I'd like to know its Post-emergence action against ORYSA in %. The compound in question is O=C(O)COc1nn(-c2ncccc2C(F)(F)F)c(-c2ccc(F)nc2)c1Cl
[out] 0%

[in] I'd like to know its Post-emergence action against ORYSA in %. The compound in question is C[C@@H](Oc1nn(-c2ncccc2F)c(-c2cncc(F)c2)c1C1CC1)C(=O)O
[out] 20%

[in] I'd like to know its Post-emergence action against ORYSA in %. The compound in question is CCOC(=O)C(Oc1nn(-c2ccccn2)c(-c2ccc(F)nc2)c1Br)C(C)C (centres unmarked)
[out] 0%

[in] I'd like to know its Post-emergence action against ORYSA in %. The compound in question is COC(=O)CCOC(=O)COc1nn(-c2ccccn2)c(-c2ccc(F)nc2)c1Br [Example I-116]
[out] 10%

====

Tested on: Avena fatua (AVEFA)
ASSAY_EXPLANATION: Pre-emergence herbicidal action against AVEFA
Type: in vivo
TEST_SETTINGS: 320 g/ha, visual scoring after about 3 weeks vs untreated controls
This listing pairs molecules with measured Pre-emergence action against AVEFA in %.
Answer format: numeric, % implied, no suffix.

Guide cases for Pre-emergence action against AVEFA in %, answers given:
O=C(O)COc1nn(-c2nc(F)ccc2F)c(-c2ccc(F)nc2)c1Cl [Example I-337]; 90
COCCOC(=O)COc1nn(-c2ncccc2F)c(-c2ccc(F)nc2)c1Br [Example I-29]; 90

For the next question, use this molecule.
[in] I'd like to know its Pre-emergence action against AVEFA in %. The molecule in question is COCCOC(=O)COc1nn(-c2ncccc2C)c(-c2cncc(F)c2)c1Br [Example I-212]
[out] 90

====

Test system: Digitaria sanguinalis (DIGSA)
ASSAY_EXPLANATION: Post-emergence herbicidal action against DIGSA
Assay type: in vivo
TEST_SETTINGS: 80 g/ha, visual rating about 3 weeks after treatment
READOUT_TYPE: Post-emergence action against DIGSA in %
Answer with the figure and its unit, nothing else.

CC(C)=NOC(=O)COc1nn(-c2ncccc2F)c(-c2ccc(F)nc2)c1Br [Example I-45]; 90%
COC(=O)CNC(=O)COc1nn(-c2ccccn2)c(-c2ccc(F)nc2)c1Br [Example I-97]; 80%
COC(=O)CCOC(=O)[C@@H](C)Oc1nn(-c2ccccn2)c(-c2ccc(F)nc2)c1Br [Example I-290]; 90%
CCOC(=O)COc1nn(-c2ncccc2F)c(-c2cncc(F)c2)c1C1CC1 [Example I-174]; 90%
N#CCOC(=O)COc1nn(-c2ncccc2F)c(-c2ccc(F)nc2)c1Br [Example I-30]; 90%

[in] I'd like to know its Post-emergence action against DIGSA in %. The compound in question is CCOC(=O)COc1nn(-c2ccccn2)c(-c2ccc(F)nc2)c1I [Example I-121]
[out] 80%

[in] I'd like to know its Post-emergence action against DIGSA in %. The compound in question is C[C@@H](Oc1nn(-c2ccc(F)cn2)c(-c2cncc(F)c2)c1Br)C(=O)O [Example I-13]
[out] 90%

[in] I'd like to know its Post-emergence action against DIGSA in %. The compound in question is COC(=O)CCOC(=O)COc1nn(-c2ncccc2F)c(-c2ccc(F)nc2)c1C1CC1 [Example I-383]
[out] 80%

[in] I'd like to know its Post-emergence action against DIGSA in %. The compound in question is COC(=O)COc1nn(-c2ncccc2F)c(-c2ccnc(F)c2)c1Br [Example I-130]
[out] 80%

[in] I'd like to know its Post-emergence action against DIGSA in %. The compound in question is COC(=O)[C@H](C)COC(=O)COc1nn(-c2ccccn2)c(-c2cncc(F)c2)c1Cl [Example I-192]
[out] 80%

[in] I'd like to know its Post-emergence action against DIGSA in %. The compound in question is C[C@@H](Oc1nn(-c2ncccc2F)c(-c2ccc(F)nc2)c1Br)C(=O)O [Example I-10]
[out] 90%

====

System: Zea mays (ZEAMX)
Format: in vivo
TEST_SETTINGS: crop plant compatibility, 80 g/ha, effect vs untreated controls
This listing pairs molecules with measured Post-emergence action against ZEAMX in %.

Guide cases for Post-emergence action against ZEAMX in %, answers given:
COC(=O)CNC(=O)COc1nn(-c2ccccn2)c(-c2ccc(F)nc2)c1F; 0%
O=C(COc1nn(-c2ncccc2F)c(-c2ccc(F)nc2)c1C1CC1)ON=C1CCCC1; 20%
CCOC(=O)COc1nn(-c2ncccc2F)c(-c2ccc(F)nc2)c1C1CC1; 20%
O=C(O)COc1nn(-c2ccccn2)c(-c2ccc(Cl)nc2)c1Cl; 0%
O=C(COc1nn(-c2ncccc2F)c(-c2ccc(F)nc2)c1C1CC1)OCc1ccccc1; 20%
COC(=O)C1CCCN(C(=O)COc2nn(-c3ccccn3)c(-c3ccc(F)nc3)c2Br)C1 (centres unmarked); 10%
C[C@@H](Oc1nn(-c2ccccn2)c(-c2ccc(Cl)nc2)c1Cl)C(=O)O; 10%
COC(=O)COc1nn(-c2ncccc2C)c(-c2cncc(F)c2)c1Br; 20%
O=C(O)CSc1nn(-c2ccccn2)c(-c2cncc(F)c2)c1C1CC1; 10%
Cc1cccnc1-n1nc(OCC(=O)O)c(Cl)c1-c1ccc(F)nc1; 0%

[in] I'd like to know its Post-emergence action against ZEAMX in %. The molecule in question is CCOC(=O)[C@@H](C)Oc1nn(-c2ncccc2F)c(-c2ccc(F)nc2)c1F
[out] 0%

[in] I'd like to know its Post-emergence action against ZEAMX in %. The molecule in question is O=C(COc1nn(-c2ncccc2F)c(-c2ccc(F)nc2)c1Br)OCc1ccccn1
[out] 10%

[in] I'd like to know its Post-emergence action against ZEAMX in %. The molecule in question is COC(=O)C(C)COC(=O)[C@@H](C)Oc1nn(-c2ccccn2)c(-c2ccc(F)nc2)c1Cl (some centres unmarked)
[out] 20%

[in] I'd like to know its Post-emergence action against ZEAMX in %. The molecule in question is COC(=O)CCOC(=O)COc1nn(-c2cccnc2C)c(-c2cncc(F)c2)c1Br
[out] 0%

[in] I'd like to know its Post-emergence action against ZEAMX in %. The molecule in question is O=C(COc1nn(-c2ncccc2F)c(-c2ccc(F)nc2)c1C1CC1)OCC1COC1
[out] 20%

[in] I'd like to know its Post-emergence action against ZEAMX in %. The molecule in question is Cc1cccnc1-n1nc(OCC(=O)O)c(Cl)c1-c1cncc(F)c1
[out] 20%

[in] I'd like to know its Post-emergence action against ZEAMX in %. The molecule in question is COC(=O)CCOC(=O)COc1nn(-c2ccccn2)c(-c2cncc(F)c2)c1C1CC1
[out] 10%
